Species on record: Rattus norvegicus
PROTOCOL_SUMMARY: Open TG-GATES - Regimen: Daily Repeat
Assay type: toxicity, organism-based, Sprague-Dawley
Parameters: regimen Daily Repeat, gender Male, age 6 weeks
MEASUREMENT_CONDITIONS: in vivo, po, 0 mg/kg, […], tissue Blood, route gavage, dose level Control, time 28 day
Reported MCH values follow for various compounds
The response must be a number in pg with no trailing unit.

CCCC(CCC)C(=O)O
19.2

## Input Entry under review: `Clc1ccccc1CN1CCc2sccc2C1` . Reported MCH?
## Output 20.9

## Input Entry under review: `O=C(O)c1cc(/N=N/c2ccc(S(=O)(=O)Nc3ccccn3)cc2)ccc1O` . Reported MCH?
## Output 20.1

## Input Entry under review: `C[C@H](CS)C(=O)N1CCC[C@H]1C(=O)O` . Reported MCH?
## Output 19

## Input Entry under review: `O=C(O)c1cn(C2CC2)c2cc(N3CCNCC3)c(F)cc2c1=O` . Reported MCH?
## Output 19.4

## Input Entry under review: CCc1cc(C(N)=S)ccn1 [ETHIONAMIDE] . Reported MCH?
## Output 19.6

====

Species: Rattus norvegicus
PROTOCOL_SUMMARY: Open TG-GATES - Regimen: Single
Type: toxicity, organism-based, Sprague-Dawley
Design: regimen Single, gender Male, age 6 weeks
MEASUREMENT_CONDITIONS: in vivo, po, 300 mg/kg, 24 h, tissue Blood, route gavage, dose level Middle
MEASURED_PARAMETER: Mono (%)
The response must be a number in % with no trailing unit.

Observe how each entry below is paired with its result.
O=C(O)c1cn(C2CC2)c2cc(N3CCNCC3)c(F)cc2c1=O
7
CCc1cc(C(N)=S)ccn1 [ETHIONAMIDE]
10
Clc1ccccc1CN1CCc2sccc2C1
2.4
C[C@H](CS)C(=O)N1CCC[C@H]1C(=O)O
5.2

Moving on to the next compound.
## Input Entry under review: `O=C(O)c1cc(/N=N/c2ccc(S(=O)(=O)Nc3ccccn3)cc2)ccc1O` . Reported Mono?
## Output 2.6

====

Species: Rattus norvegicus
PROTOCOL_SUMMARY: Open TG-GATES - Regimen: Single
Type: toxicity, organism-based, Sprague-Dawley
Design: regimen Single, gender Male, age 6 weeks
MEASUREMENT_CONDITIONS: in vivo, po, 300 mg/kg, 24 h, tissue Plasma, route gavage, dose level Middle
Reported TP values follow for various compounds
Write the numeric value and append its unit.

Observe how each entry below is paired with its result.
C[C@H](CS)C(=O)N1CCC[C@H]1C(=O)O
5.9 g/dL
O=C(O)c1cc(/N=N/c2ccc(S(=O)(=O)Nc3ccccn3)cc2)ccc1O
5.6 g/dL
CCc1cc(C(N)=S)ccn1 [ETHIONAMIDE]
5.2 g/dL
O=C(O)c1cn(C2CC2)c2cc(N3CCNCC3)c(F)cc2c1=O
5.9 g/dL

## Input Entry under review: `Clc1ccccc1CN1CCc2sccc2C1` . Reported TP?
## Output 5.6 g/dL

====

Species on record: Rattus norvegicus
PROTOCOL_SUMMARY: Open TG-GATES - Regimen: Single
Assay type: toxicity, organism-based, Sprague-Dawley
Parameters: regimen Single, gender Male, age 6 weeks
MEASUREMENT_CONDITIONS: in vivo, po, 0 mg/kg, 3 h, tissue Plasma, route gavage, dose level Control
Reported RALB values follow for various molecules

NC(=O)N/N=C/c1ccc([N+](=O)[O-])o1
2.4 g/dL

## Input Entry under review: `O=C(O)c1cc(/N=N/c2ccc(S(=O)(=O)Nc3ccccn3)cc2)ccc1O` . Reported RALB?
## Output 3.2 g/dL

## Input Entry under review: `C[C@H](CS)C(=O)N1CCC[C@H]1C(=O)O` . Reported RALB?
## Output 3.7 g/dL

## Input Entry under review: `O=C(O)c1cn(C2CC2)c2cc(N3CCNCC3)c(F)cc2c1=O` . Reported RALB?
## Output 3.8 g/dL

## Input Entry under review: `CN(C)CCC=C1c2ccccc2CCc2ccccc21` . Reported RALB?
## Output 2.4 g/dL

## Input Entry under review: NC(=O)N1c2ccccc2C=Cc2ccccc21 [CARBAMAZEPINE] . Reported RALB?
## Output 3.3 g/dL
